For each record, write down the corresponding protein stability index.
Assay Notes: protein stability index of a GFP-peptide fusion (yeast GPS) (PSI 1-4); higher = more stable; sorted into four equal gates, so the index is relative within each strain
Test Parameters: pdr5∆
Give bare numbers.

Here are 5 sequences together with their reported answers.
Measured protein stability index, TDEHLIFNSGKMIILDK [ISW2] : 2.74

Measured protein stability index, PGSSITETEVEREQPQE [SRB4] : 3.38

Measured protein stability index, IQLIKILNSHFDALRSL [YJL041W/NSP1] : 2.4

Measured protein stability index, IAGFDLIGCIDEAKDFI [PUP3] : 3.33

Measured protein stability index, SNSANVSSPESEKNKRQ [ITC1] : 3.1

Count: 5. Required value per item: protein stability index.
1. LARQVKLLLLNTSAIQE [YIL149C/MLP2]
2. VQCHGSFATATCVTCHW [SIR2]
3. SQIIARNEEILRDIGEC [SMC2]
4. NVRSVIRSSRSRGIVIG [RPP1]
5. TSIHSTISILAAPSGNY [RRP43]

A:
[1.75, 2.55, 2.46, 3.1, 1.85]

Count: 6. Required value per item: protein stability index.
1. QTIMKMGPLSNIAQMIP [SRP54]
2. TMVIQDEDWSVRIDKAL [ECM29]
3. RKNDNANDHDESIDVDM [SMC3]
4. VESVCQKLDILVAKLKK [SMC4]
5. NGAGGLMYATDWQMMTS [CSL4]
6. ARDLATMTYEEVAKRLV [FAS1]

A:
2.67
3.21
2.72
2.19
2.93
3.3

Count: 4. Required value per item: protein stability index.
1. EPNLAAQQDSTNVRLYS [ECM29]
2. KIDLLSGQFYFRNPTPL [RGR1]
3. QNSKEKNGLGLNFSTTA [MED2]
4. DLGIKYDPSIGIFGMDF [RPL11A]

A:
1. 2.9
2. 3.03
3. 3.13
4. 3.06

---

Assay Notes: protein stability index of a GFP-peptide fusion (yeast GPS) (PSI 1-4); higher = more stable; sorted into four equal gates, so the index is relative within each strain
Test Parameters: san1∆
Measured Parameter: protein stability index
Numbers only.

Here are 5 sequences together with their reported answers.
Measured protein stability index, GNGELYMDCLLYDLRAS [SNU114] : 1.91

Measured protein stability index, GFKWLNKLDEYHGLYTN [LIN1] : 1.88

Measured protein stability index, KKVTAFVPNDGCLNFVD [RPS23A] : 3.11

Measured protein stability index, LHKEQWQSGLKMYDYEE [RPN11] : 2.28

Measured protein stability index, ESITKAMEFIFGNSLIC [SMC2] : 1.39

Count: 5. Required value per item: protein stability index.
1. NNLSNQLETLTGSIRHR [CSE2]
2. SKIFNESFPDDIPLAKA [CDC53]
3. LMSCISVGTDPMPIITF [RPB2]
4. NESLIPLINLALIDTEF [YML103C/NUP188]
5. LNSTLESLYDLIEFQPS [MED6]

A:
1. 3.04
2. 2.55
3. 2.28
4. 1.32
5. 2.88

---

Assay Notes: protein stability index of a GFP-peptide fusion (yeast GPS) (PSI 1-4); higher = more stable; sorted into four equal gates, so the index is relative within each strain
Test Parameters: pdr5∆
Measured Parameter: protein stability index
Answers are plain numbers.

Here are 3 sequences together with their reported answers.
Measured protein stability index, KINRPPVSVSRIARALK [RPL18A] : 2.06

Measured protein stability index, LLPNSKNVENTKNLSIL [DSN1] : 2.5

Measured protein stability index, PLAAGNFVSEKGDLRRG [RPC53] : 3.4

Count: 6. Required value per item: protein stability index.
1. VLGIKVKIMRDPAKSRT [RPS3]
2. DEPMTTFYKCVNCGHRW [RPC11]
3. TIGGGLFGNKPTTTTGG [YGR119C/NUP57]
4. VPPILIILPLDNATLTE [SSN2]
5. VIFLSSLLTLVGSVTYQ [YJL039C/NUP192]
6. TIEVLDEVITEGQADID [POP7]

A:
2.78
2.5
3.25
2.71
1.21
3.1

Count: 4. Required value per item: protein stability index.
1. DHINWEHIKQDYVASLN [NSL1]
2. LLRIQMLLCVSYFLQER [PCI8]
3. EDTPANDSSATRSWRPP [RPB8]
4. ILNFLNQEDLFELVHHF [YML103C/NUP188]

A:
1: 3.23; 2: 1.45; 3: 2.88; 4: 2.8

Count: 8. Required value per item: protein stability index.
1. IGVLNNSSESDEEESND [RPN13]
2. YNVENQQYVAAGDLRAL [FAS1]
3. FPTDLEIFQLFTNPSVD [SWI1]
4. KKFATVPTGGASSAAAG [RPP2B]
5. LARGLRESTKALTRGEA [RPS12]
6. PILAPSVKDYRPAEETE [RPS3]
7. TLLKKANRDDVKGRENE [RPC82]
8. IALILAIQMVDPASFYL [SMC3]

A:
[2.4, 2.83, 2.88, 3.21, 3.65, 3.13, 3.5, 1.25]

Count: 4. Required value per item: protein stability index.
1. LNIRIQTYGETTAVDAL [RPC19]
2. IPKLKPAPINSLSRDFV [SNU114]
3. AVVGQQIISGNRVPDGF [RPO31]
4. HPGYDCWLSNIDIQTQD [RRI1]

A:
1: 1.09; 2: 2.8; 3: 3.28; 4: 3.14
